system: S. enterica typhimurium tolC KO; assay: growth AUC normalised to DMSO control (median) (fraction of control); higher = less growth inhibition, active = hit call of the paper; conditions: 20 µM;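 further: active when median AUC fell below 0.1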
Counter-ions that a name gives are not always drawn.
measure: growth AUC normalised to DMSO control
// print number alone

Consider the compound CCN(CC)CCOC(=O)C(O)(c1ccccc1)c1ccccc1 [Benactyzine hydrochloride] and give its measured growth AUC normalised to DMSO control.
1

Which growth AUC normalised to DMSO control value belongs to CCC1(c2cccc(O)c2)CCCCN(C)C1 (stereo not drawn) [Meptazinol hydrochloride] ?
1

# query: growth AUC normalised to DMSO control of entry CN(C)[C@@H]1C(=O)C(C(N)=O)=C(O)[C@@]2(O)C(=O)C3=C(O)c4c(O)ccc(Cl)c4[C@@](C)(O)[C@H]3C[C@@H]12 [Chlortetracycline hydrochloride]
0.00506

Sample COc1ccc(C(CN(C)C)C2(O)CCCCC2)cc1 (stereo not drawn) — what was its growth AUC normalised to DMSO control?
1

May I ask what growth AUC normalised to DMSO control has been recorded for `Oc1ccc(Cl)cc1Cc1cc(Cl)ccc1O` ?
0.00799

Query (compound): c1ccc2c(c1)OCC(C1=NCCN1)O2 (stereo not drawn) [Idazoxan hydrochloride] ; field requested: growth AUC normalised to DMSO control
0.998

Entry under review: O=c1[nH]c2ccccc2n1C1CCN(CCCC(c2ccc(F)cc2)c2ccc(F)cc2)CC1 [Pimozide] . Reported growth AUC normalised to DMSO control?
0.971

Tell me the measured growth AUC normalised to DMSO control of CC(C)(N)Cc1ccccc1 [Phentermine hydrochloride] , please.
0.996

---

test system: Haemophilus parainfluenzae; test: growth AUC normalised to DMSO control (fraction of control); higher = less growth inhibition, active = hit call of the paper; settings: 20 µM
Where a name gives a salt, the structure may show the parent alone.
Please provide measured growth AUC normalised to DMSO control for the entries that follow.
Quick one: just the number, no unit, thanks!

Request the reported growth AUC normalised to DMSO control associated with `CCC[C@H](N[C@@H](C)C(=O)N1[C@H](C(=O)O)C[C@@H]2CCCC[C@@H]21)C(=O)OCC`
1.01

Give its growth AUC normalised to DMSO control value. Item: `Oc1ncnc2[nH]ncc12`
1.01

Look at this compound and give its reported growth AUC normalised to DMSO control. `Nc1nc(Cl)nc2c1ncn2[C@H]1C[C@H](O)[C@@H](CO)O1`
1.01

Recorded growth AUC normalised to DMSO control for `c1cnc(N2CCN(Cc3ccc4c(c3)OCO4)CC2)nc1` , please?
1.02

Requested read-out: growth AUC normalised to DMSO control. Entry: COC(=O)[C@@H]1[C@H]2C[C@H]3c4[nH]c5ccccc5c4CCN3C[C@@H]2CC[C@@H]1O [Yohimbine hydrochloride]
0.971

Would you kindly share the measured growth AUC normalised to DMSO control for c1ccc(C2CN3CCSC3=N2)cc1 (centres undefined) [Tetramisole hydrochloride] ?
0.997

# growth AUC normalised to DMSO control lookup, item NS(=O)(=O)c1cc2c(cc1Cl)NC(C(Cl)Cl)NS2(=O)=O (centres undefined) [Trichlormethiazide]
1.01

So what's the measured growth AUC normalised to DMSO control for this one? `O=C(CCCN1CCC(O)(c2ccc(Br)cc2)CC1)c1ccc(F)cc1`
1.02

I have this compound here, `Nc1ccc(C(=O)NCC(=O)O)cc1` , and I need its recorded growth AUC normalised to DMSO control.
1

Item `COc1ccc2c(c1)c(CC(=O)OCC(=O)O)c(C)n2C(=O)c1ccc(Cl)cc1` has what recorded growth AUC normalised to DMSO control?
0.988

// lookup growth AUC normalised to DMSO control for CCN[C@@H](C)Cc1cccc(C(F)(F)F)c1 [Dexfenfluramine hydrochloride]
1.01

Using the record for `NCCCNCCSP(=O)(O)O` , report its growth AUC normalised to DMSO control.
1.02

Would you kindly share the measured growth AUC normalised to DMSO control for `COc1cc(-c2ccc(=O)[nH]n2)ccc1OC(F)F` ?
1.02

Recorded growth AUC normalised to DMSO control of `Cc1ccc(C)c(OCCCC(C)(C)C(=O)O)c1` , please.
0.971
